# System: S. Typhimurium
# Procedure Summary: Checkerboard growth assays with antibiotics in LPM 5.5 (FICI and MuSyC analyses)
# Assay type: cell-based
# Recorded Conditions: with ciprofloxacin (CIPRO), LPM 5.5
Experimental Readout: FICI value

[[record]]
compound = "OC(COc1ccc(Cl)c(Cl)c1)CN1CCC(Nc2nccc(C(F)(F)F)n2)CC1 (stereo not shown)"
experimental_readout = "FICI value"
value_observed = 0.7

[[record]]
compound = "NC1CCN(CC(O)COc2cccc(C(F)(F)F)c2)CC1 (stereo not shown)"
experimental_readout = "FICI value"
value_observed = 0.4

[[record]]
compound = "NC1CCN(CC(O)COc2ccc(Cl)c(Cl)c2)C1 (stereo not shown)"
experimental_readout = "FICI value"
value_observed = 0.35

[[record]]
compound = "NC1CCN(CC(O)COc2ccc(Cl)cc2)CC1 (stereo not shown)"
experimental_readout = "FICI value"
value_observed = 0.27


###

5 uM Avg Cell # Score values for the molecules below.
# Test system: RAW 264.7 macrophages
# Procedure Summary: SAFIRE macrophage assay: host toxicity (adherent macrophage count, morphology)
# Format: cell-based
# Recorded Conditions: 5 uM
Experimental Readout: 5 uM Avg Cell # Score

[[record]]
molecule = "NC1CCCN(CC(O)COc2ccc(Cl)c(Cl)c2)CC1 (stereo not drawn) [CU230]"
value_observed = 134

[[record]]
molecule = "COc1ccc(OCC(O)CN2CCC(Nc3nccc(C(F)(F)F)n3)CC2)cc1 (stereo not drawn) [CU036]"
value_observed = 54

[[record]]
molecule = "OC(CNC1CCNCC1)COc1ccccc1Cl (stereo not drawn) [CU200]"
value_observed = 99

[[record]]
molecule = "Cc1ccc(Cl)c(OCC(O)CN2CCC(Nc3nccc(C(F)(F)F)n3)CC2)c1 (stereo not drawn) [CU148]"
value_observed = 123

[[record]]
molecule = "OC(COc1ccc(Cl)c(Cl)c1)CN1CCC(Nc2ncccn2)CC1 (stereo not drawn) [CU042]"
value_observed = 77

[[record]]
molecule = "COc1cccc(OCC(O)CN2CCC(Nc3nccc(C(F)(F)F)n3)CC2)c1 (stereo not drawn) [CU081]"
value_observed = 94

[[record]]
molecule = "N[C@@H]1CCN(CC(O)COc2cc(Cl)cc(Cl)c2)C1 (stereo partly drawn) [CU203]"
value_observed = 98

[[record]]
molecule = "OC(CNCc1ccc2c(c1)OC(F)(F)O2)COc1ccc(Cl)c(Cl)c1 (stereo not drawn) [CU134]"
value_observed = 84

[[record]]
molecule = "OC(COc1ccc(Cl)c(Cl)c1)CN1CCOC2(CCOCC2)C1 (stereo not drawn) [CU027]"
value_observed = 58

[[record]]
molecule = "CN(CC(O)COc1ccc(F)c(F)c1)C1CCNCC1 (stereo not drawn) [CU178]"
value_observed = 99

[[record]]
molecule = "OC(COc1cnsn1)CN1CCC(Nc2nccc(C(F)(F)F)n2)CC1 (stereo not drawn) [CU118]"
value_observed = 89

[[record]]
molecule = "OC(COc1ccc(Cl)c(Cl)c1)CN1CC2CC1CO2 (stereo not drawn) [CU225]"
value_observed = 114

[[record]]
molecule = "NCC1CCN(CC(O)COc2ccc(Cl)c(Cl)c2)CC1 (stereo not drawn) [CU205]"
value_observed = 131

[[record]]
molecule = "CCN(CC)C(=O)C1CCN(CC(O)COc2ccc(Cl)c(Cl)c2)CC1 (stereo not drawn) [CU059]"
value_observed = 105

[[record]]
molecule = "CC(=O)Nc1ccc(OCC(O)CN2CCC(Nc3nccc(C(F)(F)F)n3)CC2)cc1 (stereo not drawn) [CU076]"
value_observed = 79

[[record]]
molecule = "OC(COc1ccc(Cl)c(Cl)c1)CN1CCN(c2nccc(C(F)(F)F)n2)CC1 (stereo not drawn) [CU061]"
value_observed = 74

[[record]]
molecule = "N#Cc1ccc(OCC(O)CN2CCC(Nc3nccc(C(F)(F)F)n3)CC2)cc1 (stereo not drawn) [CU041]"
value_observed = 85

[[record]]
molecule = "OC(COc1ccc(Cl)cc1Cl)CN1CCC(Nc2ncccn2)CC1 (stereo not drawn) [CU047]"
value_observed = 72

[[record]]
molecule = "NC1CCN(CC(O)COc2cccc(Cl)c2)CC1 (stereo not drawn) [CU188]"
value_observed = 110

[[record]]
molecule = "OC(COc1ccc(Cl)c(Cl)c1)CN1CCN(Cc2cccc3ccccc23)CC1 (stereo not drawn) [CU212]"
value_observed = 19

[[record]]
molecule = "CN(CC(O)COc1ccc(Cl)c(Cl)c1)C1CCNCC1 (stereo not drawn) [CU177]"
value_observed = 101

